System: clot lysis (fibrinolysis) in human citrated plasma, tPA-induced
experiment.description: Plasma-based clot lysis assay (5%)
Type: biochemical
experimental.setup: diluted human citrated plasma (platelet-poor, 5%), fibrinogen 3 μM, CaCl2 10 mM, tPA 0.2 nM, 37° C., OD 405 nm
Where a name gives a salt, the structure may show the parent alone.
Answer each item with its documented log10 of IC50.
Each number you see is log10 of IC50, and the unit inside the log is nM.

Qu. Please report log10 of IC50 for the following compound: O=c1cc(C2CCNCC2)n2nc3cc(F)cc(Br)c3c2[nH]1 [Example 81, hydrochloride]
Ans. 1.20

Qu. Please report log10 of IC50 for the following compound: Cc1cc(Br)c2c(c1)nn1c(C3CCNCC3)cc(=O)[nH]c21 [Example 89, hydrochloride]
Ans. 1.56

Qu. Please report log10 of IC50 for the following compound: CC(C)Oc1cccc2nn3c(C4CCNCC4)cc(=O)[nH]c3c12 [Example 76, hydrochloride]
Ans. 1.18

Qu. Please report log10 of IC50 for the following compound: CC(C)Cc1cccc2nn3c(C4CCNCC4)cc(=O)[nH]c3c12 [Example 73, hydrochloride]
Ans. 1.36

Qu. Please report log10 of IC50 for the following compound: COc1ccc(-c2cccc3nn4c(C5CCNCC5)cc(=O)[nH]c4c23)cc1 [Example 54, hydrochloride]
Ans. 1.18

Qu. Please report log10 of IC50 for the following compound: O=c1cc(C2CCNCC2)n2nc3cccc(-c4ccccc4OC(F)(F)F)c3c2[nH]1 [Example 80, hydrochloride]
Ans. 1.26

Qu. Please report log10 of IC50 for the following compound: O=c1cc(C2CCNCC2)n2nc3ccc(I)cc3c2[nH]1 [Example 48, hydrochloride]
Ans. 1.56

Qu. Please report log10 of IC50 for the following compound: Cc1ccc(Cl)c2c1nn1c(C3CCNCC3)cc(=O)[nH]c21 [Example 100, hydrochloride]
Ans. 1.48

Qu. Please report log10 of IC50 for the following compound: O=c1cc(C2CCNCC2)n2nc3cc(C(F)(F)F)cc([N+](=O)[O-])c3c2[nH]1 [Example 31, hydrochloride]
Ans. 1.99

Qu. Please report log10 of IC50 for the following compound: O=c1cc(C2CCNCC2)n2nc3ccc(F)c(-c4ccccc4)c3c2[nH]1 [Example 77, hydrochloride]
Ans. 1.04

Qu. Please report log10 of IC50 for the following compound: CCC(C)c1cccc2nn3c(C4CCNCC4)cc(=O)[nH]c3c12 (stereo not shown) [Example 72, hydrochloride]
Ans. 1.15

Qu. Please report log10 of IC50 for the following compound: O=c1cc(C2CCNCC2)n2nc3cccc(-n4cccn4)c3c2[nH]1 [Example 96, hydrochloride]
Ans. 1.41

Qu. Please report log10 of IC50 for the following compound: O=c1cc(C2CCNCC2)n2nc3cccc(-c4ccccc4Cl)c3c2[nH]1 [Example 64, hydrochloride]
Ans. 1.28

Qu. Please report log10 of IC50 for the following compound: Cc1cc(C)c2c(n1)nn1c(C3CCNCC3)cc(=O)[nH]c21 [Example 32, hydrochloride]
Ans. 2.32

Qu. Please report log10 of IC50 for the following compound: C[C@H]1C[C@H](c2cc(=O)[nH]c3c4c(-c5ccccc5)ccnc4nn23)CCN1 [Example 51, hydrochloride]
Ans. 1.18

Qu. Please report log10 of IC50 for the following compound: O=c1cc(C2CCNCC2)n2nc3ccncc3c2[nH]1 [Example 49]
Ans. 1.56
